Data credit: the Immune Epitope Database (IEDB)

molecular target: HLA-A*02:01; test: IEDB peptide-MHC binding, purified MHC/competitive/radioactivity; filed as Kd, often an IC50 or EC50 that approximates it; bounds were set here for any values at or beyond the usual limits of such assays; conditions: source organism: Homo sapiens
pKd: −log10 of the molar value.
reported-metric: pKd

// worked examples, pKd included
entry-sequence | result
GLKGAVTLT | ≤ 4.30
LLVSGSNVL | 5.85
DLLVSGSNV | ≤ 4.30
TLPRARRRV | ≤ 4.60

pKd measured on QLGLAANQT = ≤ 4.30

Measured pKd of ELRRTLKEV : ≤ 4.30

For this sequence ( SLCFLGAIA ), measured pKd is ≤ 5.00
